The molecules listed here are annotated with their plant response.
- System: SNTLS CHAMOMILE
- assay: Test E
- Format: in vivo, Matricaria indora
- appliedConditions: POSTEMERGENCE 0500 GM/HA
measurementLabel: plant response (%)

>>> reportedvalue("C=C(c1ccccc1)C(O)(Cn1cncn1)c1ccc(F)cc1F (stereo not shown)")
85
>>> reportedvalue("C=C(c1ccc(F)cc1)C(O)(Cn1cncn1)c1ccc(F)cc1F (stereo not shown)")
85
>>> reportedvalue("C=C(c1ccc(F)cc1)C(O)(Cn1cncn1)c1ccccc1F (stereo not shown)")
90
>>> reportedvalue("C=C(c1ccccc1)C(O)(Cn1cncn1)c1ccc(Cl)cc1 (stereo not shown)")
60

---

- Test system: Venturia inaequalis
- assay: Example A apple scab
- Format: in vivo
- appliedConditions: 100 PPM, read-out: disease control rating, Ex. A
We use 40% as the dividing line for pest or weed control at 100 ppm: on or above the line is class 1, below is class 0.

>>> class("C=C(c1ccccc1)C(O)(Cn1cncn1)c1cc(Cl)cc(Cl)c1 (stereo not drawn)")
"class 1"
>>> class("C=C(c1ccc(C(F)(F)F)cc1)C(O)(Cn1cncn1)c1ccc(F)cc1 (stereo not drawn)")
"class 0"
>>> class("C=C(c1ccc(F)cc1F)C(O)(Cn1cncn1)c1ccc(F)cc1 (stereo not drawn)")
"class 1"
>>> class("C=C(CN(C)C)C(O)(Cn1cncn1)c1ccc(F)cc1 (stereo not drawn)")
"class 0"
>>> class("C=C(CO)C(O)(Cn1cncn1)c1ccc(Cl)cc1Cl (stereo not drawn)")
"class 1"
>>> class("C=C(c1ccccc1)C(O)(Cn1ncnc1SCCCC)c1ccc(F)cc1 (stereo not drawn)")
"class 1"
>>> class("C=C(c1ccc(F)cc1)C(O)(Cn1ncnc1I)c1ccc(F)cc1F (stereo not drawn)")
"class 1"
>>> class("C=C(c1ccc(F)cc1)C(O)(CCCC)Cn1cncn1 (stereo not drawn)")
"class 0"
>>> class("C=C(c1ccc(F)cc1)C(O)(Cn1ncnc1S)c1ccccc1F (stereo not drawn)")
"class 1"
>>> class("C=C(c1ccc(F)cc1)C(O)(Cn1cncn1)c1ccc(F)cc1 (stereo not drawn) [Example 1]")
"class 1"
>>> class("C=C(c1ccccc1)C(O)(Cn1cncn1)c1ccccc1 (stereo not drawn)")
"class 1"
>>> class("C=C(c1ccc(F)cc1)C(O)(Cn1cncn1)c1ccc(F)cc1 (single isomer, unassigned) [Example 1277]")
"class 0"
>>> class("C=C(c1cccc(Cl)c1)C(O)(Cn1cncn1)c1ccc(F)cc1 (stereo not drawn)")
"class 1"
>>> class("C=C(c1ccc(Cl)cc1Cl)C(O)(Cn1cncn1)c1ccc(Cl)cc1 (stereo not drawn)")
"class 1"

---

- Tested on: CMN CHICKWEED
- assay: Test E
- Type: in vivo, Stellaria media
- appliedConditions: POSTEMERGENCE 0250 GM/HA
measurementLabel: plant response (%)

>>> reportedvalue("C=C(c1ccccc1)C(O)(Cn1cncn1)c1ccc(Cl)cc1 (stereo not shown) [Example 51]")
0
>>> reportedvalue("C=C(c1ccc(F)cc1)C(O)(Cn1cncn1)c1ccc(F)cc1F (stereo not shown) [Example 4]")
0
>>> reportedvalue("C=C(c1ccc(F)cc1)C(O)(Cn1cncn1)c1ccccc1F (stereo not shown) [Example 644]")
0
>>> reportedvalue("C=C(c1ccccc1)C(O)(Cn1cncn1)c1ccc(F)cc1F (stereo not shown) [Example 52]")
0

---

The compounds listed here are annotated with their plant response.
- System: GREEN FOXTAIL
- assay: Test E
- Type: in vivo, Setaria viridis
- appliedConditions: POSTEMERGENCE 0125 GM/HA
measurementLabel: plant response (%)

>>> reportedvalue("C=C(c1ccc(F)cc1)C(O)(Cn1cncn1)c1ccccc1F (stereo not shown)")
30
>>> reportedvalue("C=C(c1ccc(F)cc1)C(O)(Cn1cncn1)c1ccc(F)cc1F (stereo not shown)")
20
>>> reportedvalue("C=C(c1ccccc1)C(O)(Cn1cncn1)c1ccc(Cl)cc1 (stereo not shown)")
0
>>> reportedvalue("C=C(c1ccccc1)C(O)(Cn1cncn1)c1ccc(F)cc1F (stereo not shown)")
0

Where do the numbers come from? From patent US4965280A.
